The reported measurements were obtained from patent US20240317744A1.

- TGT: catalytic domain (JH1, amino acids 808-1132) of human JAK2 (Homo sapiens, UniProt O60674)
- Sequence (O60674 808-1132 limits assumed): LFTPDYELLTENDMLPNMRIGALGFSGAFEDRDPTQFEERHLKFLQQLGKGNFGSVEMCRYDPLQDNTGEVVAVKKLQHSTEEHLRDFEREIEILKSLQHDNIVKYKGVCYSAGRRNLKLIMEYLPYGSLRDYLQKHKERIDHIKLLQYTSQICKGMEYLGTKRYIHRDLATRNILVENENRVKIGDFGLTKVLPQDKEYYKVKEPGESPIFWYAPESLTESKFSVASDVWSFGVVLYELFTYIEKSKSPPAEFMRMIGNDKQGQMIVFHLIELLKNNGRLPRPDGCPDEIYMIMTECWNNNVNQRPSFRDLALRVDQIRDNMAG
- ASSAY_PROTOCOL: JAK2 HTRF Enzyme Activity Assay
- TEST_SETTINGS: ATP 30 µM, 60 minutes at 25° C.; read-out: V617F ENZ 30 UM
pIC50: −log10 of the molar value.
READOUT_KIND: pIC50

Consider the following illustrative entries.
[
  {
    "SMILES_STR": "[2H]C([2H])([2H])n1c(=O)n([C@@H]2CC[C@]([2H])(NC(=O)OC)C2)c2cc(Nc3cc(-c4cnccc4C(F)(F)F)cc(-c4ncc(C(C)(C)O)s4)n3)ncc21",
    "pIC50": "< 6.00"
  },
  {
    "SMILES_STR": "[2H]C([2H])([2H])n1c(=O)n([C@@H]2CC[C@@H](NC(=O)OC)C2)c2cc(Nc3cc(C(=O)N4CCOCC4)c4cccc(C(F)(F)F)c4n3)ncc21",
    "pIC50": "6.00 to 6.30"
  }
]

In the following, a different compound is considered.
Qu. May I ask what pIC50 has been recorded for [2H]C([2H])([2H])n1c(=O)n([C@@H]2CC[C@@H](NC(=O)OC)C2)c2cc(Nc3cc(-c4cnn(C)c4)cc(-c4ncc(C(C)(C)O)s4)n3)ncc21 ?
Ans. < 6.00
